Values compiled from PubChem BioAssay AID686978.

# ASSAY_NAME: qHTS for Inhibitors of human tyrosyl-DNA phosphodiesterase 1 (TDP1): qHTS in cells in absence of CPT; further: nearly all actives have a fitted effect of over 55% in size; further: potency means the concentration at half of the fitted maximal effect
# MEASUREMENT_PARAMETERS: DT40 Tdp1-/- hTDP1 cells, no CPT, ATP luminescence, 48 h
The campaign covered roughly 420,000 compounds. About 64,000 (15%) were called active. Inconclusive results (about 27%) are left out. A selection follows.

MOLECULE	Potency
CNC(=S)Nc1ccc([N+](=O)[O-])cc1	inactive
O=C(OCc1cn([C@H]2C[C@H](c3ccccc3)N(C(=O)c3cccs3)C[C@@H]2O)nn1)c1ccccc1	18.4 µM (active)
C[C@H](NC(=O)C1CCN(S(=O)(=O)c2ccccc2)CC1)C(=O)NCc1ccccc1	inactive
CC1(C(=O)Nc2ccc3c(c2)OCCO3)CN(S(C)(=O)=O)CC(=O)N1Cc1cccc(F)c1 (centres undefined)	inactive
C=CCCC(=O)N1C[C@H]2CON(C)[C@H]2C[C@H]1c1cccc(Nc2ccccc2)c1	inactive
CS(=O)(=O)N(CC(=O)N1CCN(Cc2ccccc2)CC1)c1ccc2c(c1)OCCO2	inactive
CC(C)(C)c1csc(NC2=NS(=O)(=O)c3ccccc32)n1	inactive
Cc1ccc(C(=O)NCC(=O)NC2CC2)cc1	inactive
COc1ccc(-n2ccn(CC(=O)Nc3ccc(C)c(C)c3)c(=O)c2=O)cc1OC	inactive
COc1cc(Cl)c(NC(=O)C(NS(=O)(=O)c2cccs2)C(C)C)c(OC)c1 (centres undefined)	inactive
Cc1c(NC(=O)/C=C/C(=O)O)cccc1[N+](=O)[O-]	inactive
O=C(CC(NCCN1CCOCC1)C(=O)O)Nc1cccc(Cl)c1 (centres undefined)	inactive
Cc1c(Cl)cccc1NC(=O)NCCCN1CCCC1=O	inactive
CCOC(=O)c1oc2ccccc2c1NC(=O)c1cccs1	inactive
COc1ccc(C)cc1NC(=O)NCCCCc1ccccc1	inactive
Cc1cccc(NC(=O)/C=C/c2ccc3c(c2)OCO3)n1	18.4 µM (active)
CC(CCCc1ccccc1)NC(=O)c1nn(-c2ccc(Cl)cc2)nc1CO (centres undefined)	20.6 µM (active)
CC1CN(Cc2ccccc2)C(=S)NC1=O (centres undefined)	inactive
COc1ccc(N(CC(=O)N2CCCCCC2)S(=O)(=O)c2ccccc2)cc1	inactive

* * *

# ASSAY_NAME: qHTS for Inhibitors of human tyrosyl-DNA phosphodiesterase 1 (TDP1): qHTS in cells in absence of CPT; further: nearly all actives have a fitted effect of over 55% in size
# MEASUREMENT_PARAMETERS: DT40 Tdp1-/- hTDP1 cells, no CPT, ATP luminescence, 48 h
About 64,000 (15%) of roughly 420,000 compounds were called active. Not shown: some 27% with an inconclusive outcome. Calls follow the shape of the dose curve; as a rule, active = well fitted inhibition curve with a large enough effect; inconclusive = small, poorly fitted or top-dose-only effect; inactive = flat fitted curve, though single readings scatter. A selection follows.
Classes used: active, inactive

MOLECULE	CLASS_LABEL
COc1ccc(OC)c(NC(=O)c2ccc3c(c2)CCN3S(C)(=O)=O)c1	inactive
Cc1ccc(SCC(=O)c2cc(C)c(OC(=S)N(C)C)c(C)c2)cc1	active
CCn1cc(/C=C(\NC(=O)c2cc(OC)c(OC)c(OC)c2)C(=O)N2CCN(C)CC2)c2ccccc21	inactive
COc1ccc(S(=O)(=O)N2CCc3ccccc32)cc1C(=O)Nc1cc(S(C)(=O)=O)ccc1Cl	active
Cc1c(CCO)sc[n+]1CC(=O)c1ccc2ccccc2c1	active
COc1ccccc1C(=O)Nc1cccc(C(=O)N2CCOCC2)c1	inactive
COc1ccc(C(=O)Nc2ccc(C3(C#N)CCCC3)cc2)cc1OC	active
COc1ccc(C)cc1NC(=S)Nc1ccccc1SC	inactive
CCN(C(=O)COC(=O)c1cc(S(=O)(=O)N2CCc3ccccc32)ccc1OC)C1CCS(=O)(=O)C1 (centres undefined)	inactive
COc1ccc(CN2CCCC(CNC(=O)c3ccc(F)cc3)C2)cc1OC (centres undefined)	inactive
O=C(c1ccc2c(c1)OCO2)N1CCNc2ccccc2C1	inactive
CCOc1cc(C(=O)OCC(=O)Nc2cccc(C)c2)ccc1OCC(=O)N1CCOCC1	inactive
CC(=O)NC(=S)Nc1ccc(NC(=S)NC(=O)c2ccc([N+](=O)[O-])cc2)cc1	inactive
COc1cccc(/C=N/NC(=O)C(=O)N2CCCC2)c1	inactive
COc1ccc(C(=O)NC(=S)Nc2ccc(Cl)cn2)cc1OC	inactive
CCOc1c2ccc(C(=O)NCc3ccc4c(c3)OCO4)cc2nn1C	inactive
Cc1ccc(NC(=O)CN(C)C(=O)Cn2nnc(-c3ccccc3)n2)cc1	inactive
COc1ccc(N2CCN(C3CC(=O)N(c4ccc5c(c4)OCCO5)C3=O)CC2)cc1 (centres undefined)	inactive
Cc1ccc(NC(=S)NC(=O)c2ccc(-c3ccccc3)cc2)cc1	active
CNc1nc2c(C)cccn2c(=O)c1C=Nc1ccc(OC)cc1	inactive
Cc1nccn1CCC1CCCCN1C(=O)CCc1nnc(-c2ccsc2)o1 (centres undefined)	inactive
Cc1ccccc1OCC(=O)NCC(=O)OCC(=O)c1ccc2ccccc2c1	inactive
Cc1ccc(SCC(=O)Nc2ccc3c(c2)OCCO3)cc1	inactive
CC1C(=O)N(Cc2ccccc2)c2ccccc2N1C(=O)c1ccccc1 (centres undefined)	active
COc1cc(CN2CCCC(C(=O)c3ccc(SC)cc3)C2)cc(Cl)c1O (centres undefined)	active
Cc1nc2ccccc2c(=O)n1CCCn1ccnc1	inactive
C=CCNC(=O)c1ccc2c3n(nc2c1)-c1ccc(C)cc1CO3	active
COc1ccc(C(=O)Nc2ccc(N3CCC(C)CC3)cc2)cc1Br	inactive
CC1C(=O)Nc2ccccc2N1C(=O)c1c(F)cccc1F (centres undefined)	inactive
COc1ccccc1C(=O)NC(=S)Nc1ccc(N2CCOCC2)cc1	active
Cc1ccc(-n2nc3c(c2NC(=O)c2ccc4c(c2)OCO4)CSC3)c(C)c1	inactive
COc1ccc(C(=O)Nc2ccc3c(c2)OCO3)cc1OC	inactive
COc1ccc(CN2CCCC(C(=O)c3ccc(Cl)cc3)C2)cc1Cn1cncn1 (centres undefined)	active
O=C(CCC(=O)OCc1cccc(C(=O)Oc2ccccc2)c1)Nc1cccc2ccccc12	inactive
